tested on: SCD5 (Homo sapiens)
Construct: host or cells: S. cerevisiae ole1Δ strain (W303 pdr1Δ pdr3Δ background), plasmid pRS316 with TDH3 promoter and CYC1 terminator
experiment: Growth inhibition of humanized yeast strain expressing SCD5 as sole desaturase
Format: cell-based
recorded conditions: humanized yeast strain expressing SCD5
recorded endpoint: SCD5 % Max Inhibition (%)
Give just the number in %; leave the unit off.

1. Cc1nn(C)c2cc(-c3noc(C4CCN(C(=O)CNC(=O)c5cc(F)ccc5C(F)(F)F)CC4)n3)ccc12 [Compound 304]: 51.6
2. N#Cc1ccc(-c2noc(C3CCN(C(=O)[C@H]4CC(=O)N(c5ccccc5)C4)CC3)n2)s1 [Compound 247]: 72.46
3. Cc1ccc(N2CC(C(=O)N3CCC(c4nc(-c5ccc6c(C)nn(C)c6c5)no4)CC3)CC2=O)cn1 (stereo not drawn) [Compound 179]: 85.02
4. CCOc1ccc(-c2noc(N3CCC(C(=O)N4CCN(C)C(c5ccccc5)C4)CC3)n2)cc1OC (stereo not drawn) [Compound 113]: 27.28
5. Cc1nn(C)c2cc(-c3noc(C4CN(C(=O)OC(C)(C)C)C4)n3)ccc12 [Compound 365]: 23.74

// SCD5 % Max Inhibition value for CCN1C(=O)CN(C)c2cc(-c3noc(C4CCN(C(=O)CNC(=O)c5ccccc5)CC4)n3)ccc21 [Compound 310] : 66.6

// SCD5 % Max Inhibition value for Cc1nn(C)c2cc(-c3noc(C4CCN(C(=O)C5CNC(=O)C5)CC4)n3)ccc12 (stereo not drawn) [Compound 126] : 79.08

// SCD5 % Max Inhibition value for O=C(C1CC(=O)N(c2cccc(Cl)c2)C1)N1CCC(c2nc(N3CCOCC3)no2)CC1 (stereo not drawn) [Compound 323] : 73.5

// SCD5 % Max Inhibition value for COc1cccc(C(=O)NCC(=O)N2CCC(c3nc(-c4ccc5c(C)nn(C)c5c4)no3)CC2)n1 [Compound 154] : 3.25

// SCD5 % Max Inhibition value for Cc1nn(C)c2cc(-c3noc(C4CCN(C(=O)C5CC(=O)N(c6ccc(F)cc6)C5)CC4)n3)ccc12 (stereo not drawn) [Compound 188] : 4.51

// SCD5 % Max Inhibition value for CCOc1ccc(-c2noc(C3CCN(C(=O)CN4Cc5ccc(F)cc5C4=O)CC3)n2)cc1OC [Compound 177] : 86.13

// SCD5 % Max Inhibition value for CC(C)(CO)n1ncc2ccc(-c3noc(C4CCN(C(=O)C5CC(=O)N(c6ccccc6)C5)CC4)n3)cc21 (stereo not drawn) [Compound 203] : 80.12

// SCD5 % Max Inhibition value for Cc1nn(C)c2cc(-c3noc(C4CCN(C(=O)[C@H](NC(=O)c5ccccc5)C5CC5)CC4)n3)ccc12 [Compound 191] : 6.72

// SCD5 % Max Inhibition value for Cc1nn(C)c2cc(-c3noc(C4CCN(C(=O)C5CC(=O)N(c6ccccc6)C5)CC4)n3)cnc12 (stereo not drawn) [Compound 138] : 4.57

// SCD5 % Max Inhibition value for Cc1nn(C)c2cc(-c3noc(C4CCN(C(=O)C5CC(=O)N(c6ccc(C#N)cc6)C5)CC4)n3)ccc12 (stereo not drawn) [Compound 139] : 75.11

---

tested on: SCD5 (Homo sapiens, UniProt Q86SK9)
Construct: host or cells: S. cerevisiae ole1Δ strain (W303 pdr1Δ pdr3Δ background), plasmid pRS316 with TDH3 promoter and CYC1 terminator
Sequence (Q86SK9 1-330): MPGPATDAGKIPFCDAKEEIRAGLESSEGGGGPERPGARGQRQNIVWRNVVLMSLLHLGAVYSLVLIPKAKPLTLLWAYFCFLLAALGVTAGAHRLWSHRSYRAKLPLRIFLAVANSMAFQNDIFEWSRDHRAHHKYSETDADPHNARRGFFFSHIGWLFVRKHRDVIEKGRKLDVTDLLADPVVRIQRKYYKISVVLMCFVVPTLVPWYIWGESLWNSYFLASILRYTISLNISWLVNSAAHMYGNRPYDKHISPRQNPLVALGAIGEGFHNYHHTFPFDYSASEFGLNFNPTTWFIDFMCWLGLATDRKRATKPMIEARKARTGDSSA
experiment: Growth inhibition of humanized yeast strain expressing SCD5 as sole desaturase
Format: cell-based
recorded conditions: humanized yeast strain expressing SCD5
# Lookup of reported IC50 keyed by entry

1) Cc1c2ccc(-c3noc(C4CCN(C(=O)CNC(=O)c5ccccc5)CC4)n3)cc2nn1C(C)C [Compound 289]: > 45 µM
2) COc1ccc(-c2noc(C3CCN(C(=O)Cc4ccccc4)CC3)n2)cc1OC [Compound 44]: > 45 µM

// IC50 value for CCOc1ccc(-c2noc(C3CCN(C(=O)NCCc4ccccc4)CC3)n2)cc1OC [compound 83] : > 45 µM

// IC50 value for CCOC(=O)C(C)(C)n1cc2ccc(-c3noc(C4CCN(C(=O)C5CC(=O)N(c6ccccc6)C5)CC4)n3)cc2n1 (stereo not shown) [Compound 193] : > 45 µM

// IC50 value for CC1(CC(=O)N2CCC(c3nc(-c4ccc5cnn(C6COC6)c5c4)no3)CC2)CC1 [Compound 559] : 1.19 µM

// IC50 value for CCOc1cc(-c2noc(C3CCN(C(=O)CNC(=O)c4ccccc4)CC3)n2)ccc1OC [Compound 199] : > 45 µM

// IC50 value for Cc1nn(C)c2cc(-c3noc(N4CCC(C(=O)N5CCO[C@H](c6ccccc6)C5)CC4)n3)ccc12 [Compound 211] : > 45 µM

// IC50 value for COc1ccc(-c2noc(C3CCN(C(=O)C(C)NC(=O)c4ccccc4)CC3)n2)cc1OC (stereo not shown) [Compound 28] : > 45 µM
